experiment: NOVARTIS: Cytotoxicity against human hepatocellular carcinoma cell line (Huh7); type: toxicity, cell-based, Huh-7; settings: Huh7 cells (hepatocellular carcinoma cell line)
Consider the following compounds and their measured CC50 readings.
endpoint.name: CC50

INSERT INTO measurements (compound, endpoint_name, result) VALUES
  ('OCCNc1nc(Nc2ccc(F)cc2)nc2ccccc12', 'CC50', '> 100 µM'),
  ('CCN1/C(=C/c2sc3ccc(-c4ccccc4)cc3[n+]2CCO)C=Cc2ccccc21', 'CC50', '> 10 µM'),
  ('COc1cccc2c1C(=O)c1c(O)c3c(c(O)c1C2=O)C[C@](O)(C(C)=O)C[C@@H]3O[C@H]1C[C@@H](N)[C@H](O)[C@H](C)O1', 'CC50', '0.129 µM'),
  ('O=[N+]([O-])c1cc(C(F)(F)F)cc([N+](=O)[O-])c1Sc1cccc2cccnc12', 'CC50', '4.34 µM'),
  ('COC(=O)C1=C(C)NC2=C(C(=O)CC(c3ccc(OC)c(OC)c3)C2)C1c1ccccc1F (centres undefined)', 'CC50', '> 100 µM'),
  ('O=C(NCc1ccco1)c1cccc(Cl)c1Cl', 'CC50', '> 10 µM'),
  ('O=C(NC(CN1CCCC1)c1ccccc1)C1CCCCN1S(=O)(=O)c1ccc(Cl)cc1 (centres undefined)', 'CC50', '18.6 µM'),
  ('O=C(NCCN1CCOCC1)c1ccc(Cl)cc1 [MOCLOBEMIDE]', 'CC50', '> 10 µM'),
  ('O=C(c1ccc([N+](=O)[O-])cc1[N+](=O)[O-])N1CCCCC1', 'CC50', '> 100 µM');

###

// CC50 lookup, one value per entry
assay: NOVARTIS: Cytotoxicity against human hepatocellular carcinoma cell line (Huh7); type: toxicity, cell-based, Huh-7; details: Huh7 cells (hepatocellular carcinoma cell line)
endpoint.name: CC50

INSERT INTO results (molecule, result) VALUES
  ('COc1cc(CNc2cc(OCCOc3ccc(Cl)cc3)cc(C(=O)NC3CCN(Cc4ccccc4)CC3)c2)ccc1OCc1ccccc1', '> 12.1 µM'),
  ('CC(C)OC(=O)NC(Nc1ccccc1)C(Cl)(Cl)Cl (configuration not stated)', '> 10 µM'),
  ('O=C(c1cccc([N+](=O)[O-])c1)c1ccc(Cl)c(Cl)c1', '62.4 µM'),
  ('COc1ccc(OC)c(-c2ccc(O)c(CNCC(C)c3ccccc3)c2)c1 (configuration not stated)', '> 10 µM'),
  ('Cc1oc2c(c1C(=O)N1CCN(C)CC1)C(=O)c1ccccc1C2=O', '5.46 µM'),
  ('CC(NC(=O)c1cnn2c(C(F)(F)F)cc(-c3ccc(Br)cc3)nc12)c1ccccc1 (configuration not stated)', '> 100 µM'),
  ('COc1cccc(C(=O)NC(c2ccc(Cl)cc2)c2cc(Cl)c3cccnc3c2O)c1 (configuration not stated)', '> 100 µM'),
  ('CCOC(=O)c1c(C)n(-c2ccccc2)c2ccc(OC(=O)c3ccccc3NC(=O)C(C)C)cc12', '> 100 µM'),
  ('Cc1ccc(NC(=S)NCCO)cc1C', '> 100 µM'),
  ('Fc1ccc(Nc2nc(NCC3CCCO3)c3ccccc3n2)cc1 (configuration not stated)', '9.53 µM'),
  ('Cc1ccc(C)c(NC2=C(c3ccc(C(F)(F)F)cc3)C(=O)c3ccccc32)c1', '> 100 µM'),
  ('CCN(CC(=O)N1CCc2cc(OC)c(OC)cc2C1C)C(=O)Nc1ccc(Br)cc1 (configuration not stated)', '> 10 µM');
